# assay explanation: Drug level in brain of C57Bl6 mouse at 10 mg/kg, ip after 2 hrs
# Format: ADME, organism-based
# Parameters: dose 10 mg/kg, route intraperitoneal
# experimental parameters: read-out: Drug uptake
reported endpoint: concentration at 2 h (µM)

(1) Cn1ccc(-c2cc(Nc3ccc(-n4cnc(N5CCOCC5)n4)cc3)ncc2Cl)n1
(2) Cc1nc(C)n(-c2ccc(Nc3cc(-c4nn(C)cc4-c4ccc(F)cc4)ccn3)cc2)n1
Challenge: Field: entry with larger concentration at 2 h (options 1 / 2 ). Answer by stating the label of the chosen item.
Response given: 1
(1: 3.5 µM, 2: 1.4 µM)

* * *

# Test system: Rattus norvegicus
# assay explanation: Oral bioavailability in Sprague-Dawley rat at 2 mg/kg
# Assay type: ADME, organism-based
# experimental parameters: in vivo
reported endpoint: F (%)

Before answering, review these 3 worked examples.
Challenge: Would you kindly share the measured F for `Cc1ccc(-c2ncn(-c3ccc(Nc4cc(-c5ccn(C)n5)c(F)cn4)cc3)n2)cn1` ?
Response given: 69

Challenge: Would you kindly share the measured F for `Cc1nc(C)n(-c2ccc(Nc3cc(-c4ccn(C)n4)c(Cl)cn3)cc2)n1` ?
Response given: 73

Challenge: Would you kindly share the measured F for `Cn1ccc(-c2cc(Nc3ccc(-n4cnc(N5CCOCC5)n4)cc3)ncc2Cl)n1` ?
Response given: 75

(A) Cn1ccc(-c2cc(Nc3ccc(-n4cnc(-c5ccccn5)n4)cc3)ncc2F)n1
(B) Cc1nc(C)n(-c2ccc(Nc3cc(-c4nn(C)cc4-c4ccc(F)cc4)ccn3)cc2)n1
Challenge: # min-compare on F between A and B Answer by stating the label of the chosen item.
Response given: B

* * *

# assay explanation: Drug level in plasma of C57Bl6 mouse at 10 mg/kg, ip after 2 hrs
# Assay type: ADME, organism-based
# Set-up: dose 10 mg/kg, route intraperitoneal
# experimental parameters: read-out: Drug uptake
reported endpoint: concentration at 2 h (µM)

(I) Cc1nc(C)n(-c2ccc(Nc3cc(-c4ccn(C)n4)c(Cl)cn3)cc2)n1
(II) Cn1ccc(-c2cc(Nc3ccc(-n4cnc(N5CCOCC5)n4)cc3)ncc2Cl)n1
Challenge: # min-compare on concentration at 2 h between I and II Answer by stating the label of the chosen item.
Response given: II

(1) Cc1nc(C)n(-c2ccc(Nc3cc(-c4nn(C)cc4-c4ccc(F)cc4)ccn3)cc2)n1
(2) Cn1ccc(-c2cc(Nc3ccc(-n4cnc(-c5ccccn5)n4)cc3)ncc2F)n1
Challenge: # min-compare on concentration at 2 h between 1 and 2 Answer by stating the label of the chosen item.
Response given: 2
(2: 3.3 µM, 1: 9 µM)

* * *

# assay explanation: AUC in Sprague-Dawley rat at 2 mg/kg, po
# Format: ADME, organism-based
# Parameters: dose 2 mg/kg, route oral
# experimental parameters: plasma
reported endpoint: AUC (µM·h)

Challenge: Would you kindly share the measured AUC for `Cc1nc(C)n(-c2ccc(Nc3cc(-c4ccn(C)n4)c(Cl)cn3)cc2)n1` ?
Response given: 7.1

(A) Cc1nc(C)n(-c2ccc(Nc3cc(-c4nn(C)cc4-c4ccc(F)cc4)ccn3)cc2)n1
(B) Cn1ccc(-c2cc(Nc3ccc(-n4cnc(-c5ccccn5)n4)cc3)ncc2F)n1
(C) Cc1ccc(-c2ncn(-c3ccc(Nc4cc(-c5ccn(C)n5)c(F)cn4)cc3)n2)cn1
(D) Cn1ccc(-c2cc(Nc3ccc(-n4cnc(N5CCOCC5)n4)cc3)ncc2Cl)n1
Challenge: Order each entry by recorded AUC, climbing from the minimum. Response field: labels, in requested order.
Response given: A, C, B, D

* * *

# assay explanation: Drug level in brain of C57Bl6 mouse at 10 mg/kg, ip after 2 hrs
# Format: ADME, organism-based
# Parameters: dose 10 mg/kg, route intraperitoneal
# experimental parameters: read-out: Drug uptake
reported endpoint: concentration at 2 h (µM)

Challenge: Would you kindly share the measured concentration at 2 h for `Cn1ccc(-c2cc(Nc3ccc(-n4cnc(-c5ccccn5)n4)cc3)ncc2F)n1` ?
Response given: 0.74

(A) Cc1ccc(-c2ncn(-c3ccc(Nc4cc(-c5ccn(C)n5)c(F)cn4)cc3)n2)cn1
(B) Cc1nc(C)n(-c2ccc(Nc3cc(-c4ccn(C)n4)c(Cl)cn3)cc2)n1
Challenge: # min-compare on concentration at 2 h between A and B Answer by stating the label of the chosen item.
Response given: B
(B: 5.3 µM, A: 10.3 µM)
